target: β-secretase(BACE) (Homo sapiens, UniProt P56817); construct: purchased Panvera; experiment: BACE FS1% Inhibition Assay; format: biochemical; conditions: 1 μM test compound; FS1 substrate
Sequence (P56817 46-501): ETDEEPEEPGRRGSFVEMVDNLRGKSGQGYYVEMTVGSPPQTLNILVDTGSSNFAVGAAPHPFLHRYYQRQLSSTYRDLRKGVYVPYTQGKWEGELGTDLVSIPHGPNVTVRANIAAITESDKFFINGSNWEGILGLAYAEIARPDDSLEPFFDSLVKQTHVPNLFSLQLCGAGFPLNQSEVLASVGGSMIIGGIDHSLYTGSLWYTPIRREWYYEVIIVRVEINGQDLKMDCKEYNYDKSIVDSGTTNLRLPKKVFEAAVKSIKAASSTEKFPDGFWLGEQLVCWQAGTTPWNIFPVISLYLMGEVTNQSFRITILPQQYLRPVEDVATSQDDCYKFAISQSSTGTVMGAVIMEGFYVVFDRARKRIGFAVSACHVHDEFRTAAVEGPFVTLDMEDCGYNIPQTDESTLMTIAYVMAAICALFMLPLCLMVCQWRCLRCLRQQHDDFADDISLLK

{"compound": "CN(CCc1ccccc1)C(=O)CC[C@@H](C1CCCCC1)N1Cc2cc(-c3ccccc3F)ccc2N=C1N", "bound_operator": "=", "% Inhibition (FS) [%]": 80}
{"compound": "NC1=Nc2ccc(-c3cnc4ccccc4c3)cc2CN1CCNC(=O)C12CC3CC(CC(C3)C1)C2", "bound_operator": "<", "% Inhibition (FS) [%]": 30}
{"compound": "CN(C(=O)CCC(C1CCOCC1)N1Cc2cc(Oc3ccccc3)ccc2N=C1N)C1CCC(C(=O)O)CC1 (stereo not drawn)", "bound_operator": "=", "% Inhibition (FS) [%]": 125}
{"compound": "CN(Cc1csc(-c2ccccc2)n1)C(=O)CC[C@@H](C1CCCCC1)N1Cc2cc(-c3ccccc3F)ccc2N=C1N", "bound_operator": "=", "% Inhibition (FS) [%]": 35}
{"compound": "NC1=Nc2ccc(-c3ccccc3F)cc2CN1CCNC(=O)C1CCC(C(F)(F)F)CC1 (stereo not drawn)", "bound_operator": "=", "% Inhibition (FS) [%]": 36}
{"compound": "COc1cccc(F)c1-c1ccc2c(c1)CN(CCNC(=O)C1CCC(C(F)(F)F)CC1)C(N)=N2 (stereo not drawn)", "bound_operator": "=", "% Inhibition (FS) [%]": 36}
{"compound": "CN(C(=O)CCC(C1CCCCC1)N1Cc2cc(Oc3ccccc3)ccc2N=C1N)C(COCc1ccccc1)C(=O)O (stereo not drawn)", "bound_operator": "=", "% Inhibition (FS) [%]": 109}
{"compound": "COC(=O)[C@H]1CC[C@H](NC(=O)CC[C@@H](C2CCOCC2)N2Cc3cc(Oc4ccccc4)ccc3N=C2N)CC1", "bound_operator": "=", "% Inhibition (FS) [%]": 74}
{"compound": "NC1=Nc2ccc(-c3ccccc3Cl)cc2CN1CCNC(=O)CCC(F)(F)F", "bound_operator": "=", "% Inhibition (FS) [%]": 77}
{"compound": "COc1ccccc1-c1ccc2c(c1)CN([C@@H](CCC(=O)N(C)Cc1csc(-c3ccccc3)n1)C1CCCCC1)C(N)=N2", "bound_operator": "<", "% Inhibition (FS) [%]": 30}
{"compound": "COC(=O)C1CCCC(N(C)C(=O)CCC(C2CCCCC2)N2Cc3cc(Oc4ccccc4)ccc3N=C2N)C1 (mixture of isomers)", "bound_operator": "=", "% Inhibition (FS) [%]": 97}
{"compound": "CN(C(=O)CCC(C1CCCCC1)N1Cc2cc(Oc3ccccc3)ccc2N=C1N)C1CCC(c2nn[nH]n2)CC1 (stereo not drawn)", "bound_operator": "<", "% Inhibition (FS) [%]": 30}
{"compound": "CN(Cc1cc(-c2ccccc2)on1)C(=O)CC[C@@H](C1CCCCC1)N1Cc2cc(-c3ccccc3F)ccc2N=C1N", "bound_operator": "<", "% Inhibition (FS) [%]": 30}
{"compound": "Cc1ccccc1-c1ccc2c(c1)CN(CCNC(=O)C1CCC(C(F)(F)F)CC1)C(N)=N2 (stereo not drawn)", "bound_operator": "<", "% Inhibition (FS) [%]": 30}
{"compound": "CN(C(=O)CCC(C)(C)N1Cc2cc(Oc3ccccc3)ccc2N=C1N)C1CCCCC1", "bound_operator": "=", "% Inhibition (FS) [%]": 28}

----------
molecular target: β-secretase(BACE) (Homo sapiens); construct: purchased Panvera; assay: BACE Assay-1 (MCA-substrate, IC50); format: biochemical; details: procedure of Example 158; read-out: IC50 μM (158)
Measured IC50 values are reported for all entries that follow.
experimental_endpoint: IC50 (µM)

{"molecule": "CN(C(=O)CCN1Cc2cc(C(O)c3ccccc3)ccc2N=C1N)C1CCCCC1 (centres unmarked)", "unit": "µM", "observed_measurement": 14}
{"molecule": "CN(C(=O)CCN1Cc2cc(Cc3ccccc3)ccc2N=C1N)C1CCCCC1", "unit": "µM", "observed_measurement": 2.3}
{"molecule": "NC1=Nc2ccc(Oc3ccccc3)cc2CN1CCNC(=S)NC12CC3CC(CC(C3)C1)C2", "unit": "µM", "observed_measurement": 0.19}
{"molecule": "CN(C(=O)c1cccc(CN2Cc3cc(-c4ccccc4)ccc3N=C2N)c1)C1CCCCC1", "unit": "µM", "observed_measurement": 0.023}
{"molecule": "CCCN1Cc2cc(Oc3cccc(NS(=O)(=O)c4ccccc4)c3)ccc2N=C1N", "unit": "µM", "observed_measurement": 0.2}
{"molecule": "NC1=Nc2ccc(Oc3ccccc3)cc2CN1Cc1cccc(C(=O)N(C2CCCCC2)C2CCCCC2)c1", "unit": "µM", "observed_measurement": 0.2}
{"molecule": "CCCN1Cc2cc(Oc3cccc(NS(=O)(=O)c4cc(OC)ccc4OC)c3)ccc2N=C1N", "unit": "µM", "observed_measurement": 6.9}
{"molecule": "CCCN1Cc2cc(Oc3cccc(NS(=O)(=O)c4ccc(OC)cc4)c3)ccc2N=C1N", "unit": "µM", "observed_measurement": 0.52}

----------
target: β-secretase(BACE) (Homo sapiens, UniProt P56817); construct: purchased Panvera; assay: BACE FS1% Inhibition Assay; type: biochemical; conditions: 1 μM test compound; FS1 substrate; read-out: % Inhibition (FS) 1 μM
Measured inhibition at 1 µM values are reported for all entries that follow.
experimental_endpoint: inhibition at 1 µM (%)

{"compound": "Cc1cccc(C)c1-c1ccc2c(c1)CN(Cc1cccc(C(=O)N(C)C3CCCCC3)c1)C(N)=N2", "experimental_endpoint": "inhibition at 1 µM", "unit": "%", "bound_operator": "=", "observed_measurement": 63}
{"compound": "NC1=Nc2ccc(Oc3ccccc3)cc2CN1CCNC(=S)NC12CC3CC(CC(C3)C1)C2", "experimental_endpoint": "inhibition at 1 µM", "unit": "%", "bound_operator": "=", "observed_measurement": 70}
{"compound": "CN(C(=O)CCC(C1CCOCC1)N1Cc2cc(Oc3ccccc3)ccc2N=C1N)C1CCCCC1 (stereo not shown)", "experimental_endpoint": "inhibition at 1 µM", "unit": "%", "bound_operator": "=", "observed_measurement": 118}
{"compound": "COc1ccccc1-c1ccc2c(c1)N=C(N)N(CCC(=O)NC1C3CC4CC(C3)CC1C4)C2 (stereo not shown)", "experimental_endpoint": "inhibition at 1 µM", "unit": "%", "bound_operator": "=", "observed_measurement": 34}
{"compound": "CCCCCC(CCC(=O)N(C)C1CCCCC1)N1Cc2cc(Oc3ccccc3)ccc2N=C1N (stereo not shown)", "experimental_endpoint": "inhibition at 1 µM", "unit": "%", "bound_operator": "=", "observed_measurement": 62}
{"compound": "CN(C(=O)CCC(c1ccc(Cl)cc1)N1Cc2cc(Oc3ccccc3)ccc2N=C1N)C1CCCCC1 (stereo not shown)", "experimental_endpoint": "inhibition at 1 µM", "unit": "%", "bound_operator": "=", "observed_measurement": 76}
{"compound": "COc1cccc(Oc2ccc3c(c2)CN(Cc2cccc(C(=O)N(C)C4CCCCC4)c2)C(N)=N3)c1", "experimental_endpoint": "inhibition at 1 µM", "unit": "%", "bound_operator": "=", "observed_measurement": 49}
{"compound": "NC1=Nc2ccc(Oc3ccccc3)cc2CN1C1CCN(C(=O)C2CCCCC2)CC1", "experimental_endpoint": "inhibition at 1 µM", "unit": "%", "bound_operator": "<", "observed_measurement": 30}
{"compound": "CC(C)[C@H](CCC(=O)N(C)C1CCCCC1)N1Cc2cc(Oc3ccccc3)ccc2N=C1N", "experimental_endpoint": "inhibition at 1 µM", "unit": "%", "bound_operator": "=", "observed_measurement": 112}
{"compound": "CN(C(=O)c1cccc(CN2Cc3cc(-c4ccccc4[N+](=O)[O-])ccc3N=C2N)c1)C1CCCCC1", "experimental_endpoint": "inhibition at 1 µM", "unit": "%", "bound_operator": "<", "observed_measurement": 30}
{"compound": "CN(CCN1Cc2cc(Oc3ccccc3)ccc2N=C1N)C(=O)C1CCCCC1", "experimental_endpoint": "inhibition at 1 µM", "unit": "%", "bound_operator": "=", "observed_measurement": 34}
{"compound": "NC1=Nc2ccc(-c3cccc(Cl)c3)cc2CN1CCNC(=O)C1CCCCC1", "experimental_endpoint": "inhibition at 1 µM", "unit": "%", "bound_operator": "=", "observed_measurement": 54}
{"compound": "CC1CCCCC1C(=O)NCCN1Cc2cc(Oc3ccccc3)ccc2N=C1N (stereo not shown)", "experimental_endpoint": "inhibition at 1 µM", "unit": "%", "bound_operator": "=", "observed_measurement": 101}
{"compound": "CN(C(=O)c1cccc(CN2Cc3cc(-c4cccnc4)ccc3N=C2N)c1)C1CCCCC1", "experimental_endpoint": "inhibition at 1 µM", "unit": "%", "bound_operator": "=", "observed_measurement": 49}
{"compound": "CC(C)C(CC(=O)N(C)C1CCCCC1)N1Cc2cc(Oc3ccccc3)ccc2N=C1N (stereo not shown)", "experimental_endpoint": "inhibition at 1 µM", "unit": "%", "bound_operator": "<", "observed_measurement": 30}
{"compound": "CC(C)[C@H](CNC(=O)C1CCCCC1)N1Cc2cc(Oc3ccccc3)ccc2N=C1N", "experimental_endpoint": "inhibition at 1 µM", "unit": "%", "bound_operator": "=", "observed_measurement": 118}
